The reported numbers originate from patent US20110230472A1.

For each of the compounds below, state its inhibition at 50 µM.
target.system: PI-3 kinase γ (Homo sapiens)
Sequence (P48736 whole entry): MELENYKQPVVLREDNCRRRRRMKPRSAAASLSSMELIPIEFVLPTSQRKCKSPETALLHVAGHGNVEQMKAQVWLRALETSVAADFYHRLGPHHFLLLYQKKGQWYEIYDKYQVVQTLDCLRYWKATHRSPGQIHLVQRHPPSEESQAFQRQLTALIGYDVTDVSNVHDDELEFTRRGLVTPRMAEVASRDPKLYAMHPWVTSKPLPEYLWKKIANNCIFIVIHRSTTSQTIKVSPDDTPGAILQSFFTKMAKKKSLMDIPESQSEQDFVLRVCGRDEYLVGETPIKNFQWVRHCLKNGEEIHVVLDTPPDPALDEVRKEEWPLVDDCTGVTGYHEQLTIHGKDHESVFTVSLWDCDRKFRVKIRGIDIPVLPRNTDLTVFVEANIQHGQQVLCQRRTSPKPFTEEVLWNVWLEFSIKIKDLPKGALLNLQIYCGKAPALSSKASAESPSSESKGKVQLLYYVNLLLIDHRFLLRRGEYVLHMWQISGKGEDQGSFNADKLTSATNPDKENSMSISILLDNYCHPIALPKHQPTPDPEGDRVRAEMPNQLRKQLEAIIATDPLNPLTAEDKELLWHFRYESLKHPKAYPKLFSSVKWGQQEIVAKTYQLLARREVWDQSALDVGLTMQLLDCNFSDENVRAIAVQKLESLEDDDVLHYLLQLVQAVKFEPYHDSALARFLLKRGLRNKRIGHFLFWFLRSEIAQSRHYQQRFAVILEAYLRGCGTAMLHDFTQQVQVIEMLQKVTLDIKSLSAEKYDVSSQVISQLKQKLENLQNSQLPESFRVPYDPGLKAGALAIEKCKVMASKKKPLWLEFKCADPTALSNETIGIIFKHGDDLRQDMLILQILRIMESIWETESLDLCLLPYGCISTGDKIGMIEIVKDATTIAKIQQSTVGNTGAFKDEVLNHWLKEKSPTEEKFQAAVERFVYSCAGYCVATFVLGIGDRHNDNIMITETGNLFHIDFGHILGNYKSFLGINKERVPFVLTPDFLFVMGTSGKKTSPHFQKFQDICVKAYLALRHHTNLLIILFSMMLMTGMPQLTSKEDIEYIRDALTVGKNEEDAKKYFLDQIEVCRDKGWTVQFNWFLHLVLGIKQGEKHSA
test.method.notes: PI3Kγ inhibitory activity, PI3-kinase HTRF assay (inhibition ratio)
Type: biochemical
test.settings: 0.5 h; PI3Kγ, compound at 50 μM

>>> reading("CNC(=O)Nc1cc2n(n1)CCN2c1ccc2c(c1)C(=O)CC2")
"≥ 95%"
>>> reading("CNC(=O)Nc1cc2n(n1)CCN2c1cc(C(=O)N2CCOCC2)cc(-c2cccc(O)c2)c1")
"≥ 95%"
>>> reading("CNC(=O)Nc1cc2n(n1)CCN2c1ccccc1")
"≥ 95%"
>>> reading("CNC(=O)Nc1nc2c(s1)CN(c1cc(C(=O)O)nc(Cl)n1)CC2")
"≥ 95%"
>>> reading("CNC(=O)Nc1nc2c(s1)CN(c1cc(C(=O)NC3CCCC3)nc(Cl)n1)CC2")
"≥ 95%"
>>> reading("CNC(=O)Nc1cc2n(n1)CCN2c1ccc(C(=O)O)c(OC)c1")
"≥ 95%"
>>> reading("CNC(=O)Nc1cc2n(n1)CCN2c1cccc(-c2cnc(C)o2)c1")
"≥ 95%"
>>> reading("CNC(=O)Nc1cc2n(n1)CCN2c1cc(Br)cc(C(=O)N2CCOCC2)c1")
"≥ 95%"
>>> reading("CNC(=O)Nc1nc2c(s1)CN(c1ccnc(OC)n1)CC2")
"≥ 95%"
>>> reading("CNC(=O)Nc1cc2n(n1)CCN2c1cc(C#Cc2cccnc2)cc(C(=O)N2CCOCC2)c1")
"81%"

Consider the following items and state reported inhibition at 50 µM for each.
1. CNC(=O)Nc1cc2n(n1)CCN2c1cc(C(=O)N2CCOCC2)cc(-c2cnc(N)nc2)c1
2. CNC(=O)Nc1cc2n(n1)CCN2c1cc(C(=O)N2CCOCC2)cc(-c2cccnc2)c1

["≥ 95%", "89%"]

Each compound below has a recorded value; state its inhibition at 50 µM.
1. CNC(=O)Nc1cc2n(n1)CCN2c1ccc(F)c(C(=O)O)c1
2. CNC(=O)Nc1cc2n(n1)CCN2C(=O)c1ccccc1
3. CNC(=O)Nc1nc2c(s1)CN(c1cc(Cl)ncn1)CC2
4. CNC(=O)Nc1nc2c(s1)CN(c1cc(Oc3ccccc3)nc(O)n1)CC2
5. Nc1cc(N2CCc3nc(NC(=O)c4cccc(Cl)c4)sc3C2)nc(Cl)n1

1: ≥ 95%; 2: 89%; 3: ≥ 95%; 4: 80%; 5: 87%

Respectfully, I request inhibition at 50 µM for each entry included below.
1. CNC(=O)Nc1cc2n(n1)CCN2c1cc(Br)cc(C(=O)NC)c1
2. CNC(=O)Nc1cc2n(n1)CCN(c1cccnc1)C2

≥ 95%
90%

---

target.system: PI-3 kinase γ (Homo sapiens)
test.method.notes: PI3Kγ inhibitory activity, PI3-kinase HTRF assay (inhibition ratio)
Type: biochemical
test.settings: 0.5 h; PI3Kγ, compound at 50 μM
readout.type: inhibition at 50 µM

>>> reading("CNC(=O)Nc1nc2c(s1)CN(c1cc(C(=O)NC)nc(Cl)n1)CC2")
"≥ 95%"
>>> reading("CNC(=O)Nc1nc2c(s1)CN(c1cc(Oc3ccccc3)nc(SC)n1)CC2")
"≥ 95%"

// moving on: another record for inhibition at 50 µM
Return reported inhibition at 50 µM; argument: O=C(Cn1ccnc1)Nc1cc2n(n1)CCN2c1cccc(Cl)c1
≥ 95%
